# ASSAYED_SYSTEM: AR protein (Homo sapiens, UniProt P10275, T878A)
# Construct: host or cells: LNCaP FGC
# Sequence (P10275 whole entry T878A): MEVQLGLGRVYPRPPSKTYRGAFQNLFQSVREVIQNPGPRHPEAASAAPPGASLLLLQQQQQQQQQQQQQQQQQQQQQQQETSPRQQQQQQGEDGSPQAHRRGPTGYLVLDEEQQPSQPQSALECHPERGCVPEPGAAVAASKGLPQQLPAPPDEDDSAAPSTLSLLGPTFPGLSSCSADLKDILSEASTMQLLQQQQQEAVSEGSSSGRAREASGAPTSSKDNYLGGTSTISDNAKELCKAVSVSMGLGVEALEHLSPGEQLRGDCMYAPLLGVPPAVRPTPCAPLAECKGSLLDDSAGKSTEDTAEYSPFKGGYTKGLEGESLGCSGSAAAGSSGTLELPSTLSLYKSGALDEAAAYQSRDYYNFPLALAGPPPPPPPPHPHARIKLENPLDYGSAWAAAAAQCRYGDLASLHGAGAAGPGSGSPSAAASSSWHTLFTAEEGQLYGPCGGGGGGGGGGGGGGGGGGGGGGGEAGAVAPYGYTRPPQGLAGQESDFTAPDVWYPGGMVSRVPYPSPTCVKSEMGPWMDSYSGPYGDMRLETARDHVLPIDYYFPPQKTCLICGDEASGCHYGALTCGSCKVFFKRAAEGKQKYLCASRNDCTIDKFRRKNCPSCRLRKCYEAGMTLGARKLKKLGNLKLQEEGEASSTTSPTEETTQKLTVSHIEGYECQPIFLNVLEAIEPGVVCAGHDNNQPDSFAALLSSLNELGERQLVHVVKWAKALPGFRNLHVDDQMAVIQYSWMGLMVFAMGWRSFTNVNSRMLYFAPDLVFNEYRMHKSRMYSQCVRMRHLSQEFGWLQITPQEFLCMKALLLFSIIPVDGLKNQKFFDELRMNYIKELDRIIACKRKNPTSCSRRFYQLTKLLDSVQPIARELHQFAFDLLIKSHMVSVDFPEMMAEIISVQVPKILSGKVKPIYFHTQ
# ASSAY_SUMMARY: AR protein degradation in LNCaP cells (Western blot)
# Format: cell-based
# TEST_PARAMETERS: 10 nM, 8 hours
Attribute: percent AR protein degradation at a fixed concentration at 0.01 µM
Remember to quote the unit after the number.

COc1cc2c(cc1C(=O)N[C@H]1CCC(=O)NC1=O)C1(CCN(CC3CCN(c4ccc(N5CCC6(CC5)C[C@H](C)N(c5ccc(C#N)c(Cl)c5)C6)cc4)CC3)CC1)CO2 | -15%
N#Cc1cc2c(cc1Cl)OC1(CCN(C(=O)c3ccc(N4CCC(CN5CCC6(CCc7cc(C(=O)N[C@H]8CCC(=O)NC8=O)c(F)cc7O6)CC5)CC4)cc3)CC1)CO2 | -11%
Cn1c(=O)n(C2CCC(=O)NC2=O)c2ccc3c(c21)OCC31CCN(C2CCN(c3ccc(C(=O)N[C@H]4CC[C@H](Oc5ccc(C#N)c(Cl)c5)CC4)nn3)CC2)CC1 (some centres unmarked) | 37%
C[C@H]1CC2(CCN(c3ccc(N4CCC(CN5CCC6(CC5)COc5ccc7c(c56)n(C)c(=O)n7C5CCC(=O)NC5=O)CC4)cc3)CC2)CN1c1ccc(C#N)c(Cl)c1 (some centres unmarked) | 48%
C[C@H]1CC2(CCN(c3ccc(N4CCC(CN5CCN6c7ccc(C(=O)N[C@H]8CCC(=O)NC8=O)c(F)c7OC[C@H]6C5)CC4)cc3)CC2)CN1c1ccc(C#N)c(Cl)c1 | 24%
COc1cc2c(cc1C(=O)N[C@H]1CCC(=O)NC1=O)OCC21CCN(CC2CCN(c3ccc(N4CCC5(CC4)C[C@H](C)N(c4ccc(C#N)c(Cl)c4)C5)cc3)CC2)CC1 | 22%
COc1cc(O[C@H]2C(C)(C)[C@H](NC(=O)c3ccc(N4CCC(N5CC6(CCC7(CC6)COc6c7ccc7c6CN(C6CCC(=O)NC6=O)C7=O)C5)CC4)cc3)C2(C)C)ccc1C#N (some centres unmarked) | -42%
N#Cc1cc2c(cc1Cl)CC1(CCN(c3ccc(C(=O)N4CCC(CN5CCC6(CCc7cc(C(=O)N[C@H]8CCC(=O)NC8=O)c(F)cc7O6)CC5)CC4)cc3)CC1)CO2 | -23%
N#Cc1cc2c(cc1Cl)OCC1(CCN(C(=O)c3ccc(N4CCC(CN5CCC6(CCc7cc(C(=O)N[C@H]8CCC(=O)NC8=O)c(F)cc7O6)CC5)CC4)cc3)CC1)O2 | 20%
C[C@H]1CC2(CCN(c3ccc(N4CCC(CN5CCC6(CC5)CCC5(CC6)COc6c5ccc5c6CN(C6CCC(=O)NC6=O)C5=O)CC4)cc3)CC2)CN1c1ccc(C#N)c(Cl)c1 (some centres unmarked) | -4%

Next:
Q) Which percent AR protein degradation at a fixed concentration at 0.01 µM is listed for Cn1c(=O)n(C2CCC(=O)NC2=O)c2ccc3c(c21)OCC31CCN(CC2CCN(c3ccc(C(=O)N[C@H]4CC[C@H](Oc5ccc(C#N)c(Cl)c5)CC4)nn3)CC2)CC1 (some centres unmarked) ?
A) 49%

###

The reader will find reported Degradation rate of AR protein in VCaP cells values listed item by item below.
# ASSAYED_SYSTEM: AR protein (Homo sapiens)
# Construct: host or cells: VCaP
# ASSAY_SUMMARY: AR protein degradation in VCaP cells (Western blot)
# Type: cell-based
# TEST_PARAMETERS: 0.5 nM, 8h
Quick reminder: number only, in %, skip the unit.

Q) Fill in the blank: the reported Degradation rate of AR protein in VCaP cells of COc1cc(O[C@H]2C(C)(C)[C@H](NC(=O)c3ccc(N4CCC(CN5CCC6(CCc7cc(F)c(C(=O)N[C@H]8CCC(=O)NC8=O)cc7O6)CC5)(OC)CC4)cc3)C2(C)C)ccc1C#N [A-P-40] is ____.
A) -8

Q) # input molecule: COc1cc(O[C@H]2C(C)(C)[C@H](NC(=O)c3ccc(N4CCC(CN5CCN(c6ccc(C(=O)N[C@H]7CCC(=O)NC7=O)c(F)c6)CC5)CC4)cc3)C2(C)C)ccc1C#N [ARV-766, reference compound] ; wanted: its Degradation rate of AR protein in VCaP cells
A) 9

Q) I'd like to know its Degradation rate of AR protein in VCaP cells. The molecule in question is COc1cc(O[C@H]2C(C)(C)[C@H](NC(=O)c3ccc(N4CCC(F)(CN5CCC6(CCc7cc(F)c(C(=O)N[C@H]8CCC(=O)NC8=O)cc7O6)CC5)CC4)cc3)C2(C)C)ccc1C#N [A-P-41]
A) 13

Q) I'd like to know its Degradation rate of AR protein in VCaP cells. The molecule in question is COc1cc(O[C@H]2C(C)(C)[C@H](NC(=O)c3ccc(N4CCC(C)(CN5CC6(CCC7(CC6)COc6c7ccc7c6CN(C6CCC(=O)NC6=O)C7=O)C5)CC4)cc3)C2(C)C)ccc1C#N (relative stereo) [A-P-4]
A) 50

Q) Need Degradation rate of AR protein in VCaP cells of COc1cc(O[C@H]2C(C)(C)[C@H](NC(=O)c3ccc(N4CCC(CN5CCN6c7ccc(C(=O)N[C@H]8CCC(=O)NC8=O)cc7OC[C@H]6C5)CC4)cc3)C2(C)C)ccc1C#N [A-P-74] , thanks.
A) 2

Q) Which Degradation rate of AR protein in VCaP cells reading was recorded for the molecule C[C@H]1CC2(CCN(c3ccc(C(=O)N4CCC(CN5CCN6c7ccc(C(=O)N[C@H]8CCC(=O)NC8=O)cc7OC[C@@H]6C5)CC4)cc3)CC2)CN1c1ccc(C#N)c(Cl)c1 [A-P-69] ?
A) -9

Q) Given the molecule COc1cc(O[C@H]2C(C)(C)[C@H](NC(=O)c3ccc(N4CCC(CN5CCC6(CCc7cc(C(=O)N[C@H]8CCC(=O)NC8=O)c(F)cc7O6)CC5)CC4)cc3)C2(C)C)ccc1C#N [A-P-30] , what is its reported Degradation rate of AR protein in VCaP cells?
A) 36

Q) Returns the measured Degradation rate of AR protein in VCaP cells for the input molecule. Input: COc1cc(O[C@H]2C(C)(C)[C@H](NC(=O)c3ccc(N4CCC(CN5CCC6(CC5)COc5c6ccc(C(=O)N[C@H]6CCC(=O)NC6=O)c5F)(OC)CC4)cc3)C2(C)C)ccc1C#N [A-P-86]
A) -30

Q) Requested field: Degradation rate of AR protein in VCaP cells. Item: CC1(C)[C@H](NC(=O)c2ccc(N3CCC(CN4CCC5(CCc6cc(C(=O)N[C@H]7CCC(=O)NC7=O)c(F)cc6O5)CC4)CC3)nc2)C(C)(C)[C@H]1Oc1ccc(C#N)c(Cl)c1 [A-P-50]
A) 84
